inhibition at 400 µM values, listed per item
test system: Acinetobacter baumannii; assay: Effect on Acinetobacter baumannii biofilm formation at 400 uM after 24 hrs by crystal violet reporter assay relative to control; assay type: functional; settings: read-out: INH
Provide the measurement as a number trailed by its unit.

Guide cases for inhibition at 400 µM, answers given:
Nc1nc(CCCc2cn(CC(=O)N3CCCC3)nn2)c[nH]1    6.2%
Nc1nc(CCCc2cn(CC(=O)N3CCOCC3)nn2)c[nH]1    30.3%

stdin: Give its inhibition at 400 µM value. Item: CC(C)NC(=O)Cn1cc(CCCc2c[nH]c(N)n2)nn1
stdout: 13.6%

====

test system: Escherichia coli K-12; assay: Dispersion of preformed Escherichia coli K-12 ER2738 biofilm by crystal violet reporter assay relative to control; details: Escherichia coli, ER2738; read-out: EC50
measured.parameter: pEC50
In textbook form, pEC50 equals minus log to base ten of the concentration in mol/L.

stdin: Recorded pEC50 for CCCCCCCCCCNC(=O)Cn1cc(CCCc2c[nH]c(N)n2)nn1.Cl , please?
stdout: 3.92

====

test system: Acinetobacter baumannii; assay: Effect on Acinetobacter baumannii biofilm formation at 400 uM after 24 hrs by crystal violet reporter assay relative to control; format: functional; conditions: read-out: INH
Catalogue of inhibition at 400 µM values
Please respond with the number in % and leave the unit unwritten.

Please review the following examples before continuing.
COc1ccc(CNC(=O)Cn2cc(CCCc3c[nH]c(N)n3)nn2)cc1    17.5
Cl.Nc1nc(CCCc2cn(CC(=O)NCc3ccccc3)nn2)c[nH]1    19.5

stdin: What does the record list as inhibition at 400 µM for CCCCCCCCCCNC(=O)Cn1cc(CCCc2c[nH]c(N)n2)nn1.Cl ?
stdout: 28.3

stdin: So what's the measured inhibition at 400 µM for this one? CCCCCCNC(=O)Cn1cc(CCCc2c[nH]c(N)n2)nn1
stdout: 31.4

stdin: Look up inhibition at 400 µM for this compound: COc1ccc(CCNC(=O)Cn2cc(CCCc3c[nH]c(N)n3)nn2)cc1.Cl
stdout: 8.5

stdin: What does the data say about its inhibition at 400 µM? Entry: Nc1nc(CCCc2cn(CC(=O)Nc3ccccc3)nn2)c[nH]1
stdout: 23

stdin: Tell me the measured inhibition at 400 µM of CCCCCCCCCCCCCCNC(=O)Cn1cc(CCCc2c[nH]c(N)n2)nn1 , please.
stdout: 36.4

====

tested on: Acinetobacter baumannii; experiment: Effect on Acinetobacter baumannii biofilm formation at 400 uM after 24 hrs by crystal violet reporter assay relative to control; assay type: functional; conditions: read-out: INH
measured.parameter: inhibition at 400 µM (%)
Please state the figure in %; there is no need to write the unit.

The cases that follow already have their inhibition at 400 µM on record.
CC(C)(C)NC(=O)Cn1cc(CCCc2c[nH]c(N)n2)nn1    21.2
Nc1nc(CCCc2cn(CC(=O)NC3CCCC3)nn2)c[nH]1    15.9
Nc1nc(CCCc2cn(CC(=O)NCCc3ccccc3)nn2)c[nH]1    20.8

stdin: Query (compound): Nc1nc(CCCc2cn(CC(=O)NCCCc3ccccc3)nn2)c[nH]1 ; field requested: inhibition at 400 µM
stdout: 23.2
